- System: Microsporum canis
- testName: Antifungal activity against Microsporum canis
- Assay type: functional
recordedEndpoint: MIC (µg/mL)

compound | unitString | MIC
CN(C/C=C/c1ccccc1)Cc1ccc2ccccc2c1 | µg/mL | 50

[A] CN(C/C=C/c1ccco1)Cc1cccc2ccccc12
[B] CN(C/C=C/c1ccccc1)C1CCCc2ccccc21 (stereo unspecified)
[C] CN(C/C=C/C1CCCCC1)Cc1cccc2ccccc12
Exam item: List items by MIC in falling order. Dear reader, please state the labels in the requested order.
Marked response: B, C, A

----------
- Test system: Aspergillus fumigatus
- testName: Antifungal activity measured against Aspergillus fumigatus
- Assay type: functional
recordedEndpoint: MIC

Example results:
molecule | MIC
CN(Cc1cccc2ccccc12)C(=O)/C=C/c1ccccc1 | > 100 µg/mL
CN(C/C=C/c1ccccc1)Cc1ccccc1 | > 100 µg/mL
COc1ccc(/C=C/CN(C)Cc2cccc3ccccc23)cc1 | > 100 µg/mL
CN(C/C=C/c1cccc2ccccc12)Cc1ccccc1 | > 100 µg/mL
C/C(=C\c1ccccc1)CN(C)Cc1cccc2ccccc12 | > 100 µg/mL
CN(C/C=C/c1ccccc1)CC1=CCCc2ccccc21 | > 100 µg/mL
CN(C/C=C/Cc1ccccc1)Cc1cccc2ccccc12 | > 100 µg/mL
CN(C/C=C/c1ccccc1)CC1=CCOc2ccccc21 | 50 µg/mL

Exam item: Record lookup: for Aspergillus fumigatus, what MIC belongs to C(=C\c1ccccc1)/COCc1cccc2ccccc12 ?
Marked response: > 100 µg/mL

Exam item: Record lookup: for Aspergillus fumigatus, what MIC belongs to CN(C/C=C/c1ccc(F)cc1)Cc1cccc2ccccc12 ?
Marked response: 25 µg/mL
